Molecular target: Cyno in house BCMA
Sequence (as listed by the source): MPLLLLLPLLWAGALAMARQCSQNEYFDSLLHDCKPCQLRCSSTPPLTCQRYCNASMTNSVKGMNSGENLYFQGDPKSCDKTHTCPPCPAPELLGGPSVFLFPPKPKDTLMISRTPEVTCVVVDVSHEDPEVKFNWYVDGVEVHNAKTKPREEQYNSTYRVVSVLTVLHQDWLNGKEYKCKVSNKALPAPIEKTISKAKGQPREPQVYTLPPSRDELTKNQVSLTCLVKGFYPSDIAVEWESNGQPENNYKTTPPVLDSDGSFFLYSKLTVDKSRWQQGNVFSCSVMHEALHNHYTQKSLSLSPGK
Assay: ProteOn analysis of CA8 chimeric and humanised constructs, cyno in house BCMA
Assay type: binding
Conditions: Run 1, Cyno in house BCMA, 25° C., in s-1 (unit assumed)
observation-type: kd
When you answer, write just the number.

CA8 humanised J5M1: humanised CA8 anti-BCMA antibody, VH J5 (SEQ ID NO:21) + VL M1 (SEQ ID NO:33) (antibody, V domains shown, Humansed antibody sequence) VH: QVQLVQSGAEVKKPGSSVKVSCKGSGYTFTNYWMHWVRQAPGQGLEWMGATYRGHSDTYYNQKFKGRVTITADTSTSTAYMELSSLRSEDTAVYYCTRGAIYDGYDVLDNWGQGTLVTVSS VL: DIQMTQSPSSLSASVGDRVTITCSASQDISNYLNWYQQKPGKAPKLLIYYTSNLHSGVPSRFSGSGSGTDYTLTISSLQPEDFATYYCQQYRKLPWTFGQGTKLEIKR    5.41E−05

Field: next molecule
QUERY: Fill in the blank: the reported kd of CA8 humanised J3M2: humanised CA8 anti-BCMA antibody, VH J3 (SEQ ID NO:17) + VL M2 (SEQ ID NO:35) (antibody, V domains shown, Humansed antibody sequence) VH: QVQLVQSGAEVKKPGSSVKVSCKGSGYTFTNYWMHWVRQAPGQGLEWMGATYRGHSDTYYNQKFKGRVTITADTSTSTAYMELSSLRSEDTAVYYCTRGAIYNGYDVLDNWGQGTLVTVSS VL: DIQLTQSPSSLSASVGDRVTITCSASQDISNYLNWYQQKPGKAPELVIYYTSNLHSGVPSRFSGSGSGTDYTLTISSLQPEDFATYYCQQYRKLPWTFGQGTKLEIKR is ____.
RESULT: 5.87E−05
